For each record, write down the corresponding Kd.
# system under test: carbohydrate recognition domain of human galectin-3 (Galectin-3-CRD) (Homo sapiens, UniProt P17931)
# Sequence (P17931 118-248 limits assumed): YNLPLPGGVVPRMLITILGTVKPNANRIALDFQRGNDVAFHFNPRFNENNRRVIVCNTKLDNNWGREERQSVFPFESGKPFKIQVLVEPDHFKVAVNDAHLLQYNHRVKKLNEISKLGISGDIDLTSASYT
# unit: nM | format: bare number

Query :: Give the measured Kd for COC1C(n2cc(-c3cc(F)c(F)c(F)c3)nn2)[C@@H](O)C(CO)O[C@H]1[C@H](OCc1ccc(Br)cc1)C(=O)NCCO (stereo partly drawn)
Result :: 20

Query :: Give the value of Kd reported for the following: COC1C(n2cc(-c3cc(F)c(F)c(F)c3)nn2)[C@@H](O)C(CO)O[C@H]1[C@H](OCc1ccc(Br)cc1)C(=O)N[C@@H](C)C(F)(F)F (stereo partly drawn)
Result :: 8

Query :: Return the recorded Kd value; entry: COC1C(n2cc(-c3cc(F)c(F)c(F)c3)nn2)[C@@H](O)C(CO)O[C@H]1[C@H](OCc1ccc(Br)cc1)C(=O)O (stereo partly drawn)
Result :: 31

Attribution: patent US20240270724A1
